# TESTED_SYSTEM: PDHK2 (Homo sapiens, UniProt Q15119)
# Construct: purchased Carna Biosciences
# PROTOCOL_DESCRIPTION: Kinase panel profiling at 1 µmol/L (mobility shift assay, Carna)
# Assay type: biochemical
# STUDY_CONDITIONS: 1 µmol/L of BTK inhibitor
Examples of compounds with documented Percentage inhibition of kinase enzyme activity follow.
ASSAY_READOUT: Percentage inhibition of kinase enzyme activity (%)

• C=CC(=O)N1CCC[C@@H](n2nc(-c3ccc(Oc4ccccc4)cc3)c3c(N)ncnc32)C1 = -1.08
• CC#CC(=O)N1CCC[C@H]1c1nc(-c2ccc(C(=O)Nc3ccccn3)cc2)c2c(N)nccn12 = 0.16
• O=C(c1ccc(Oc2ccccc2)cc1Cl)c1c[nH]c2ncnc(N[C@@H]3CC[C@@H](CO)OC3)c12 = 4.18
• COc1ccc(F)cc1C(=O)NCc1ccc(-c2nn([C@@H](C)C(F)(F)F)c(N)c2C(N)=O)cc1 = 0.06

###

# System: HCC1954
# PROTOCOL_DESCRIPTION: Cell viability assay (ATPlite)
# Assay type: cell-based
# STUDY_CONDITIONS: Homo sapiens; HCC1954 cell line, 72 hours incubation
pIC50: −log10 of the molar value.
ASSAY_READOUT: pIC50

- O=C(c1ccc(Oc2ccccc2)cc1Cl)c1c[nH]c2ncnc(N[C@@H]3CC[C@@H](CO)OC3)c12: 5.88

###

# TESTED_SYSTEM: B-RAF (Homo sapiens, UniProt P15056)
# Sequence (P15056 whole entry): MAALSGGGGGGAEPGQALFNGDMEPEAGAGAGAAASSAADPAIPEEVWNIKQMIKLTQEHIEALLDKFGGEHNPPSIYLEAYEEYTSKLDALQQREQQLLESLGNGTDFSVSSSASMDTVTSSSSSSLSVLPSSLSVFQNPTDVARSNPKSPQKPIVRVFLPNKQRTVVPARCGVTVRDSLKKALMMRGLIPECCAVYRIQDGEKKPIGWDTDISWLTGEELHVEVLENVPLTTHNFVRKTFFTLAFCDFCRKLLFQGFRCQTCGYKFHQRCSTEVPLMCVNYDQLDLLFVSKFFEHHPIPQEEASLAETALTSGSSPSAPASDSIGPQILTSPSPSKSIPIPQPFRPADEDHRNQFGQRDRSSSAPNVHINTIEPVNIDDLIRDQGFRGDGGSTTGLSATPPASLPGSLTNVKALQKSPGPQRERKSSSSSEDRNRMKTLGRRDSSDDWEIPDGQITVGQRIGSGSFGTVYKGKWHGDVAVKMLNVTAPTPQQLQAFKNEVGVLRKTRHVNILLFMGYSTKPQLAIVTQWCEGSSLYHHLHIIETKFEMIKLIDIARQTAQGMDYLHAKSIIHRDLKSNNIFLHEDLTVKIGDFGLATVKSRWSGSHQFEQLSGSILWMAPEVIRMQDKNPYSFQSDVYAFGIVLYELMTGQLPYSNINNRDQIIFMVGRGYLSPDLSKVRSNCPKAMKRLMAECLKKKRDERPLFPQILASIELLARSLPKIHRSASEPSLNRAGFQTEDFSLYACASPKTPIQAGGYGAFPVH
# PROTOCOL_DESCRIPTION: Kinase enzyme activity assay at 1 mmol/L ATP (Carna)
ASSAY_READOUT: IC50 (nM)

* O=C(c1ccc(Oc2ccccc2)cc1Cl)c1c[nH]c2ncnc(N[C@@H]3CC[C@@H](CO)OC3)c12 | 335

###

# TESTED_SYSTEM: NEK7 (Homo sapiens, UniProt Q8TDX7)
# Construct: purchased Carna Biosciences
# Sequence (Q8TDX7 whole entry): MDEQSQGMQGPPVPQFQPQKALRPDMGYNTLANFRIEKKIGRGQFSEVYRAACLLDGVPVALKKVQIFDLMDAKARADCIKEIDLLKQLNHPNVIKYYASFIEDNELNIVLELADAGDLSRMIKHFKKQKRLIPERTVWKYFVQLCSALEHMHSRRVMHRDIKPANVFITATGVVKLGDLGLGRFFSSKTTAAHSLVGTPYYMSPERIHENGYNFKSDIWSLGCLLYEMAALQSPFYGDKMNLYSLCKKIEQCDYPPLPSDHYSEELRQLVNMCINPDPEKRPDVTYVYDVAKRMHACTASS
# PROTOCOL_DESCRIPTION: Kinase panel profiling at 1 µmol/L (mobility shift assay, Carna)
# Type: biochemical
# STUDY_CONDITIONS: 1 µmol/L of BTK inhibitor
Examples of molecules with documented Percentage inhibition of kinase enzyme activity follow.
ASSAY_READOUT: Percentage inhibition of kinase enzyme activity (%)

• COc1ccc(F)cc1C(=O)NCc1ccc(-c2nn([C@@H](C)C(F)(F)F)c(N)c2C(N)=O)cc1 [pirtobrutinib] = -2.19
• CC#CC(=O)N1CCC[C@H]1c1nc(-c2ccc(C(=O)Nc3ccccn3)cc2)c2c(N)nccn12 [acalabrutinib] = -10.68
• C=CC(=O)N1CCC[C@@H](n2nc(-c3ccc(Oc4ccccc4)cc3)c3c(N)ncnc32)C1 [ibrutinib] = 0.69
• O=C(c1ccc(Oc2ccccc2)cc1Cl)c1c[nH]c2ncnc(N[C@@H]3CC[C@@H](CO)OC3)c12 [nemtabrutinib] = 3.06

###

# TESTED_SYSTEM: PIM3 (Homo sapiens, UniProt Q86V86)
# Construct: purchased Carna Biosciences
# PROTOCOL_DESCRIPTION: Kinase panel profiling at 1 µmol/L (mobility shift assay, Carna)
# Format: biochemical
# STUDY_CONDITIONS: 1 µmol/L of BTK inhibitor
Examples of compounds with documented Percentage inhibition of kinase enzyme activity follow.
ASSAY_READOUT: Percentage inhibition of kinase enzyme activity (%)

- C=CC(=O)N1CCC[C@@H](n2nc(-c3ccc(Oc4ccccc4)cc3)c3c(N)ncnc32)C1 [ibrutinib]: -0.24
- O=C(c1ccc(Oc2ccccc2)cc1Cl)c1c[nH]c2ncnc(N[C@@H]3CC[C@@H](CO)OC3)c12 [nemtabrutinib]: -5.55
- CC#CC(=O)N1CCC[C@H]1c1nc(-c2ccc(C(=O)Nc3ccccn3)cc2)c2c(N)nccn12 [acalabrutinib]: -0.0376
- COc1ccc(F)cc1C(=O)NCc1ccc(-c2nn([C@@H](C)C(F)(F)F)c(N)c2C(N)=O)cc1 [pirtobrutinib]: 1.44
